Tested on: passive cutaneous anaphylaxis reaction (PCA) in the rat
Assay: Passive cutaneous anaphylaxis reaction (PCA) in the rat
Format: in vivo
Conditions: oral
ENDPOINT NAME: ED50 (mg/kg)
Numbers only, in mg/kg.

Would you mind giving ED50 for every compound in the list below?
1. Cn1c(=O)c2[nH]cnc2n(C)c1=O [Theophylline, reference compound]
2. CC1(C)CN2C(=O)c3nc[nH]c3N(Cc3ccc(Cl)cc3)C2=N1
3. O=C1c2[nH]cnc2N(Cc2ccc(Cl)cc2)C2=NCCN12

1: 41.5; 2: 42.8; 3: 33.7

Please go through the list and note ED50 for each compound.
1. O=C1c2[nH]nnc2N(Cc2ccc(F)cc2)C2=NCCN12
2. Cc1nc2c([nH]1)C(=O)N1CCN=C1N2CC(C)C

17.7
33.9

Origin of measurements: patent US4298734A
